Sourced from patent US20260317312A1

MEASURED_TARGET: hRIPK1 (aa 1-375) fusion protein (Homo sapiens, UniProt Q13546)
Construct: hRIPK1 (aa 1-375) fusion protein
ASSAY_PROCEDURE: Receptor-Interacting Protein Kinase 1 inhibition, ADP Glo assay (conversion of ATP to ADP due to autophosphorylation)
Format: biochemical
CONDITION_PARAMETERS: ATP 50 μM, 30 min preincubation, 240 min incubation, room temperature, DMSO 1%
Protocol: The catalytic activity of RIPK1 was measured by monitoring the conversion of Adenosine triphosphate (ATP) to Adenosine diphosphate (ADP) due to autophosphorylation using an ADP-Glo kinase kit (Promega, catalog no. V9104). […]
ENDPOINT_NAME: IC50 (µM)

molecule="O=C([C@H]1C[C@@H](n2cnc3ccccc32)C1)N1OCC[C@H]1c1cncc(F)c1 [Compound 42]" measured_target="hRIPK1 (aa 1-375) fusion protein (Homo sapiens, UniProt Q13546)" value_observed=0.156

I = O=C([C@H]1C[C@@H](n2cnc3cc(F)ccc32)C1)N1OCC[C@H]1c1cc(F)cc(F)c1 [Compound 69]
II = Cn1ccn(-c2ccc(OC[C@H]3CC[C@H](C(=O)N4OCC[C@H]4c4cncc(C#N)c4)CC3)c(F)c2)c1=O [Compound 89]
III = N#Cc1cc(F)cc([C@@H]2CCON2C(=O)[C@H]2C[C@H](n3ncc4cc(F)ccc43)C2)c1 [Compound 98]
IV = CN1CC(=O)N(c2ccc(Cl)c(OC[C@H]3CC[C@H](C(=O)N4OCC[C@H]4c4cc(F)cc(C#N)c4)CC3)c2)C1=O [Compound 80]
Put the items in order so that reported IC50 rises from first to last. # output: labels, in the requested order
II, I, III, IV
(II: 0.018 µM, I: 0.026 µM, III: 0.041 µM, IV: 0.164 µM)

---

MEASURED_TARGET: hRIPK1 (aa 1-375) fusion protein (Homo sapiens, UniProt Q13546)
Construct: hRIPK1 (aa 1-375) fusion protein
Sequence (Q13546 1-375): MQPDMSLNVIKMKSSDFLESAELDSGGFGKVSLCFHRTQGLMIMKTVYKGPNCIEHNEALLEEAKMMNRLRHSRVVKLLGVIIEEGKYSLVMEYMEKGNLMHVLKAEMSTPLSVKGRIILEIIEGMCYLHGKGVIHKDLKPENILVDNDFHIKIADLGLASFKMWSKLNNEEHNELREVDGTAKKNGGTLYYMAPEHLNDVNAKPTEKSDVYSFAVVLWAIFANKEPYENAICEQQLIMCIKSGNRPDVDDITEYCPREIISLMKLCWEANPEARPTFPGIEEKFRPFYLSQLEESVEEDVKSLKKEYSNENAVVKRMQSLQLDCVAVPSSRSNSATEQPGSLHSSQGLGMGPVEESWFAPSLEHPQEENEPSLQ
ASSAY_PROCEDURE: Receptor-Interacting Protein Kinase 1 inhibition, ADP Glo assay (conversion of ATP to ADP due to autophosphorylation)
CONDITION_PARAMETERS: ATP 50 μM, 30 min preincubation, 240 min incubation, room temperature, DMSO 1%
Experimental: The catalytic activity of RIPK1 was measured by monitoring the conversion of Adenosine triphosphate (ATP) to Adenosine diphosphate (ADP) due to autophosphorylation using an ADP-Glo kinase kit (Promega, catalog no. V9104). […]
ENDPOINT_NAME: IC50 (nM)

Here are 6 compounds together with their reported answers.
compound="NC(=O)c1cc(OCC2CCCC(C(=O)N3OCC[C@H]3c3cc(F)cc(F)c3)CC2)ncn1 (single isomer, unassigned; stereoisomer 4) [Compound 125]" endpoint_name=IC50 value_observed=39
compound="NC(=O)c1cccc(OC[C@H]2CC[C@H](C(=O)N3OCC[C@H]3c3cnccn3)CC2)c1 [Compound 100]" endpoint_name=IC50 value_observed=42
compound="CC1(C)OC(=O)N(c2ccc(F)c(OC[C@H]3CC[C@H](C(=O)N4OCC[C@H]4c4cc(F)cc(F)c4)CC3)c2)C1=O [Compound 59]" endpoint_name=IC50 value_observed=29
compound="NC(=O)c1cc(OC[C@H]2CC[C@H](C(=O)N3OCC[C@H]3c3cnccn3)CC2)ccc1F [Compound 101]" endpoint_name=IC50 value_observed=40
compound="N#Cc1cc(F)cc([C@@H]2CCON2C(=O)[C@H]2CC[C@H](CNc3cc(C#N)ncn3)CC2)c1 [Compound 30]" endpoint_name=IC50 value_observed=59
compound="N#Cc1ccnc(N[C@H]2C[C@@H](C(=O)N3OCC[C@H]3c3cc(F)cc(F)c3)C2)n1 [Compound 2]" endpoint_name=IC50 value_observed=22

A = CC1(C)OC(=O)N(c2ccc(F)c(OC[C@H]3CC[C@H](C(=O)N4OCC[C@H]4c4cncc(C#N)c4)CC3)c2)C1=O [Compound 92]
B = CC1(C)OC(=O)N(c2ccc(F)c(OC[C@H]3CC[C@H](C(=O)N4OCC[C@H]4c4cc(F)cc(C#N)c4)CC3)c2)C1=O [Compound 79]
C = N#Cc1ccnc(N[C@H]2C[C@@H](C(=O)N3OCC[C@H]3c3ccc(F)c(F)c3)C2)n1 [Compound 21]
D = N#Cc1ccnc(N[C@H]2C[C@@H](C(=O)N3OCC[C@H]3c3ccc(Cl)cc3)C2)n1 [Compound 24]
E = CCOC(=O)c1ncnc(Cl)c1N[C@H]1C[C@@](C)(C(=O)N2OCC[C@H]2c2cc(F)cc(F)c2)C1 [Compound 9]
// smallest IC50 at index 0, largest at the end Form entry: ranked labels (order as requested).
D, B, C, A, E
(D: 13 nM, B: 20 nM, C: 29 nM, A: 42 nM, E: 366 nM)
